Attribution: paper PMC7819943

- Study target: OsWOX13 (Oryza sativa, UniProt Q5QMM3 1-267)
- Sequence: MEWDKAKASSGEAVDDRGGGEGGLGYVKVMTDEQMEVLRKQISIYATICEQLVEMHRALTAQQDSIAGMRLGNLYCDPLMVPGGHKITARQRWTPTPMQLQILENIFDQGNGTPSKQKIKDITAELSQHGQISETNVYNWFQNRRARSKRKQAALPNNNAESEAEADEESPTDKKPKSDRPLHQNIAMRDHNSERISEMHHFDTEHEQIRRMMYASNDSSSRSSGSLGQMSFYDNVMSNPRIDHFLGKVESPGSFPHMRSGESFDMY
- Protocol notes: protein-binding microarray (RPBM); PBS, 2% BSA, 51.3 ng/ul salmon testes DNA, 50 uM zinc acetate, 200 nM TF, 25 C, 1 h; high values mean tight binding
- Cond: protein: recombinant; tags: N-terminal polyhistidine and DsRed monomer fusion (pET32a); label: CyDye5-dUTP incorporated in the synthesized complementary strand; 3' TTTTT single-stranded linker to array surface; dsDNA, one strand shown
In all, about 35,000 sequences were measured (“fluorescence intensity (a.u.)”: median about 10,000, highest 2% from about 52,000 on). This excerpt belongs to a sample that is enriched for the highest values.
Measurement label: binding signal

For orientation, consider the following solved cases.
* GTAGGATTGGATGGATATAGGAGCCTGCCTTGCCTTCCTCCGGAGTCACCTAGTGCAG | 6030 fluorescence intensity (a.u.)
* CTCTCTCCTTGGCCTCTTCCTCCCTGGTCGGTAGCGCAGCCGGAGTCACCTAGTGCAG | 59600 fluorescence intensity (a.u.)
* CAAAATTGGCTCCTCACCCTTGTGCAGATGCAGCCTTCTTCGGAGTCACCTAGTGCAG | 13700 fluorescence intensity (a.u.)
* AGCTGAAATTAAGAACAGACAGACATGATCACAGATCGAGCGGAGTCACCTAGTGCAG | 10100 fluorescence intensity (a.u.)
* GTTAATTTTGTGAAATATGTTTGCTGGTTAGTGAATTGTACGGAGTCACCTAGTGCAG | 12400 fluorescence intensity (a.u.)
* ACCAAATTAATTTATTAAACATAAAATTGAATATATTTTGCGGAGTCACCTAGTGCAG | 46500 fluorescence intensity (a.u.)

Provide the reported binding signal of each entry below, same order.
1. ATGATGAGATTGAGGTTGATATAGATAGCTTTGATGTTGACGGAGTCACCTAGTGCAG
2. AATAAAATAAATGATCAAATGAATTATGAAAACTCGTGACCGGAGTCACCTAGTGCAG
3. AACCATGTTTGACTCAACATAATTAGTGCGACAAACCGCACGGAGTCACCTAGTGCAG

output:
["23200 fluorescence intensity (a.u.)", "5260 fluorescence intensity (a.u.)", "4590 fluorescence intensity (a.u.)"]

---

- Study target: OsWOX13 (Oryza sativa, UniProt Q5QMM3 1-267)
- Sequence: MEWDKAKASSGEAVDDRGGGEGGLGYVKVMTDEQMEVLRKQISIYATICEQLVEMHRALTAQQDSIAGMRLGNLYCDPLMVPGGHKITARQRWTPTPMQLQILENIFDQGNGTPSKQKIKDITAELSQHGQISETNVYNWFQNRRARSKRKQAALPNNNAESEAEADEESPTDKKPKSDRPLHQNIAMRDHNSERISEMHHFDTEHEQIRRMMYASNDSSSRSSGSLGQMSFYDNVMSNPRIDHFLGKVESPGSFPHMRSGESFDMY
- Protocol notes: protein-binding microarray (RPBM); PBS, 2% BSA, 51.3 ng/ul salmon testes DNA, 50 uM zinc acetate, 200 nM TF, 25 C, 1 h; high values mean tight binding
- Cond: protein: recombinant; tags: N-terminal polyhistidine and DsRed monomer fusion (pET32a); label: CyDye5-dUTP incorporated in the synthesized complementary strand; 3' TTTTT single-stranded linker to array surface; dsDNA, one strand shown
Whole data set: some 35,000 sequences, median “fluorescence intensity (a.u.)” near 10,000, cut for the highest 2% near 52,000. The list comes from a sample in which the highest values are over-represented; it also holds close analogues and randomly drawn sequences.
Measurement label: binding signal

* CTTTGACAGACAGATATCCATTCATACGTGCACAGGCGACCGGAGTCACCTAGTGCAG | 55300 fluorescence intensity (a.u.)
* AGTGATTAATTCATTCCAAAAGACAGTAGCGACATCTATTCGGAGTCACCTAGTGCAG | 20300 fluorescence intensity (a.u.)
* GAGCTATTGATTGATTGATTGCTGATCGCTTCCAGTTCCACGGAGTCACCTAGTGCAG | 54700 fluorescence intensity (a.u.)
* ATAAATTGATGCCCAATTTTCGAAGATGCTCATAGGGGTGCGGAGTCACCTAGTGCAG | 52500 fluorescence intensity (a.u.)
* TTTATCAAATTATCGTTTGTGTACTCTAGCTGGTCCTGGACGGAGTCACCTAGTGCAG | 3870 fluorescence intensity (a.u.)
* ATTGACAAGATAGATTGTTGCCCAATTTTCGAAGATGCTCCGGAGTCACCTAGTGCAG | 42000 fluorescence intensity (a.u.)

Provide the reported binding signal of each entry below, same order.
1. CAAAACGAAATTGATAGATCTTAATGAGTTGTACAACTTTCGGAGTCACCTAGTGCAG
2. AGGACTAATAGATTTCCAAGATGATCGGGACTGACCGATCCGGAGTCACCTAGTGCAG
3. GATCGAATTGGTAAATCAAATGTCTCTAAATTCTCTCCATCGGAGTCACCTAGTGCAG

output:
1. 20400 fluorescence intensity (a.u.)
2. 10600 fluorescence intensity (a.u.)
3. 4550 fluorescence intensity (a.u.)

---

I'd be grateful if you could share measured binding signal for these entries.
- Study target: OsWOX13 (Oryza sativa, UniProt Q5QMM3 1-267)
- Sequence: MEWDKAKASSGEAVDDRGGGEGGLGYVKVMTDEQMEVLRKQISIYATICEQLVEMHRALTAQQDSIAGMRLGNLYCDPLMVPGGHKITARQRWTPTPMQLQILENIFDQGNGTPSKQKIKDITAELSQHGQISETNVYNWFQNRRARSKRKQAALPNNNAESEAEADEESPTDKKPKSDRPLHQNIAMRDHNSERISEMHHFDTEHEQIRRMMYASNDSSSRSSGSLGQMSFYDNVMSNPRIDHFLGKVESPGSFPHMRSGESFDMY
- Protocol notes: protein-binding microarray (RPBM); PBS, 2% BSA, 51.3 ng/ul salmon testes DNA, 50 uM zinc acetate, 200 nM TF, 25 C, 1 h; high values mean tight binding
- Cond: protein: recombinant; tags: N-terminal polyhistidine and DsRed monomer fusion (pET32a); label: CyDye5-dUTP incorporated in the synthesized complementary strand; 3' TTTTT single-stranded linker to array surface; dsDNA, one strand shown
Over roughly 35,000 sequences, “fluorescence intensity (a.u.)” has its median near 10,000; the highest 2% begin near 52,000. The sample as a whole holds a higher share of the highest values than the screen did.

* CTTTAGTCTCTGACACTAATTTAGAGTATTAAATATAGACCGGAGTCACCTAGTGCAG | 3810 fluorescence intensity (a.u.)
* ACAAAACCATTTGTGATTTTCTTTGAGTGCCCAGTTTTGTCGGAGTCACCTAGTGCAG | 3210 fluorescence intensity (a.u.)
* TAGCTAATTTGCACCCACATGCATGTGCTTCGAGTAGTTACGGAGTCACCTAGTGCAG | 7070 fluorescence intensity (a.u.)
* TACCCATCTTCCATTGACAGACAATTGGGCCCCACTCCGCCGGAGTCACCTAGTGCAG | 7450 fluorescence intensity (a.u.)
* CCTGTTAAATTGATCTGCCCTGATTAATTGACCCACCGACCGGAGTCACCTAGTGCAG | 38100 fluorescence intensity (a.u.)
* ATTTTCTCAATTTATCTCACTCATATAAACTCCAAATTGGCGGAGTCACCTAGTGCAG | 6170 fluorescence intensity (a.u.)
* ATCTCAATCAGCAACACAAATGACCCTGACCCACGATCCACGGAGTCACCTAGTGCAG | 20900 fluorescence intensity (a.u.)
* CGGTCATCAATCTCATCAGCTACATCCCAAAGGGGAATCACGGAGTCACCTAGTGCAG | 5580 fluorescence intensity (a.u.)

Provide the reported binding signal of each entry below, same order.
1. ATGACACATGCCGTTGATTGGTTGACACAGATCGGATTCGCGGAGTCACCTAGTGCAG
2. TTTGTTGATTTGTTTTGGTTGGATTGATCTGTCGCTTATACGGAGTCACCTAGTGCAG

output:
1: 46900 fluorescence intensity (a.u.); 2: 25500 fluorescence intensity (a.u.)

Provide the reported binding signal of each entry below, same order.
1. TCGGTCTGCAAACAAATTGATTGATTTGTTTTCCTTTTGCCGGAGTCACCTAGTGCAG
2. CTACCTTTAATTAGCTTTGCCATAAACGACGTGGGAGTATCGGAGTCACCTAGTGCAG
3. AAAGTGACTGAATTTTAAGTCATCGGAAATTTACACGCTCCGGAGTCACCTAGTGCAG

output:
47100 fluorescence intensity (a.u.)
10300 fluorescence intensity (a.u.)
15400 fluorescence intensity (a.u.)

Provide the reported binding signal of each entry below, same order.
1. ATCCTTTTCTCCTTTTCTCGCAAAATCTCCAAAACCGCTTCGGAGTCACCTAGTGCAG
2. ACTCATGCTTACTTGATTGATAGTGGAAGAACCTTTTCTTCGGAGTCACCTAGTGCAG

output:
1. 65500 fluorescence intensity (a.u.)
2. 28200 fluorescence intensity (a.u.)

Provide the reported binding signal of each entry below, same order.
1. ATTGATTAGTAGTAATTAATTAGTTATAAACTACACGCGCCGGAGTCACCTAGTGCAG
2. CAAAACTGTCATTTTGTATGATTTCTCTCTCATCAATTGGCGGAGTCACCTAGTGCAG
3. GCTGATTGCCATTGATTCATATTCATTGTGTGCCATCTGGCGGAGTCACCTAGTGCAG

output:
["58700 fluorescence intensity (a.u.)", "17500 fluorescence intensity (a.u.)", "58800 fluorescence intensity (a.u.)"]

Provide the reported binding signal of each entry below, same order.
1. CCCCAAATCCCACTCCAATCACCACCGCTTCTTCTCCTCCCGGAGTCACCTAGTGCAG
2. AGTCGAGTCAACTTAATTAACTTAACTTCAACCGTCGCTACGGAGTCACCTAGTGCAG
3. TTGATTTGATTGGGTTGGTTCCAAATTATATTCTGTGATTCGGAGTCACCTAGTGCAG
4. TTGATCTGATTAATTAACTGATCAGACGGGTCGACGGGACCGGAGTCACCTAGTGCAG

output:
6580 fluorescence intensity (a.u.)
5940 fluorescence intensity (a.u.)
57600 fluorescence intensity (a.u.)
55700 fluorescence intensity (a.u.)

Provide the reported binding signal of each entry below, same order.
1. TGATCTGATTGAACAGTCAATCACAGATTCACAGTAGGACCGGAGTCACCTAGTGCAG
2. CCAGTCAAGGGAACAGATTGACCAATCGTTCACACCAGTGCGGAGTCACCTAGTGCAG
3. CAAATTCCAATCATCTCCAAAACCACTTCGCAAATAAATTCGGAGTCACCTAGTGCAG
4. ACTAATCTGATTGTGTCACTTGTGCGATTGATGGAGTTCACGGAGTCACCTAGTGCAG
5. CGTGGTCTCTAATTTGTTTTGTTCGTTCTCCTTTCTTGTTCGGAGTCACCTAGTGCAG

output:
1: 62500 fluorescence intensity (a.u.); 2: 18400 fluorescence intensity (a.u.); 3: 17900 fluorescence intensity (a.u.); 4: 23900 fluorescence intensity (a.u.); 5: 4660 fluorescence intensity (a.u.)

Provide the reported binding signal of each entry below, same order.
1. CGCGTGTGGTGATTGGCTGGCTCTTTGCCTCATCATGGGCCGGAGTCACCTAGTGCAG
2. AGTTTATGATAATTTAAATTTATATAGTATGTAGAATGGTCGGAGTCACCTAGTGCAG
3. ACTTGTAGTAATTTAATTTGAAATTCTGTTCTTGCCTCTGCGGAGTCACCTAGTGCAG
4. AATTGACAAAGATGAAACACATGTGGACTGGACTACTCGACGGAGTCACCTAGTGCAG
5. CATTTGACTGAACAAGAACAGTAGGATCAATCTTTGTGCACGGAGTCACCTAGTGCAG
6. AGCAAATTTAAATTTGATAGTATAGAATTGGTTCTGAGGTCGGAGTCACCTAGTGCAG

output:
["34100 fluorescence intensity (a.u.)", "14400 fluorescence intensity (a.u.)", "6760 fluorescence intensity (a.u.)", "3660 fluorescence intensity (a.u.)", "16900 fluorescence intensity (a.u.)", "52400 fluorescence intensity (a.u.)"]

Provide the reported binding signal of each entry below, same order.
1. CTAAATTGATTATACATGATTTAGAGTTAGTAGTTAGCTACGGAGTCACCTAGTGCAG
2. AGCTATTAGTAGATTGGCTATAAATGAATTGGAGTTAGTACGGAGTCACCTAGTGCAG
3. CACTGACGGAGAAATTTACCGGTCAATGGCCGTCGTCGGTCGGAGTCACCTAGTGCAG

output:
1. 59600 fluorescence intensity (a.u.)
2. 14900 fluorescence intensity (a.u.)
3. 18000 fluorescence intensity (a.u.)

The reported value for CAAACGGGTAATTAACTGGGATTAATTTGCCATAAGCCGACGGAGTCACCTAGTGCAG in terms of binding signal is 53100 fluorescence intensity (a.u.)
